Molecular target: T1, extracellular domain of activin receptor type IIB (ActRIIBecd), biotinylated (Homo sapiens (Human), UniProt Q13705 27-117, amino-biotinylated with amine-PEG3-Biotin)
T1 construct: immobilised on a streptavidin-coated sensor chip; also called biotinylated ActRIIBecd; extracellular domain of ActRIIB
T1 sequence: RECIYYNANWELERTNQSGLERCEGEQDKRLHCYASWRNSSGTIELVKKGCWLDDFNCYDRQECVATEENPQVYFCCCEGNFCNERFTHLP
Assay: BIAcore SPR, biotinylated ActRIIBecd on chip; SD ±17.84 nM
endpoint: pKd
In simple prose, pKd is minus the logarithm base ten of a concentration in moles per litre.

Problem: Entry Recombinant polypeptide of clones 24 + 23 (designed binder) NSKDPKACCVPTELSAISMLYLDENEKVVLKNYQDMVVHGCGCRNSKIPKACCVPTELSAISMLYLDENEKPVLKNYQDMVVEGCGCR has what pKd?
Solution: 7.20

Ref: patent US20190071480A1
